Assay: qHTS assay to test for compound auto fluorescence at 535 nm (green) in HEK293 cells (AID 720680); note: % is set by controls: 0 for no effect and ±100 for the full control effect
Conditions: green autofluorescence 485/535 nm; series mostly up to 91.3 µM
The source made the active and inactive calls. Calls come from the whole dose curve; as a rule, active = well fitted curve in the direction sought with a large enough effect in the repeat runs; inconclusive = weak or mixed curves; inactive = flat fitted curve, though single readings scatter.

COMPOUND SMILES: O=C(O[C@@H](C(=O)O)[C@@H](OC(=O)c1ccccc1)C(=O)O)c1ccccc1
fluorescence, % of fluorescein: inactive

COMPOUND SMILES: CC(C)NC[C@@H](O)COc1cccc2ccccc12
fluorescence, % of fluorescein: inactive

COMPOUND SMILES: COC(=O)c1ccc2cc(C(=O)OC)ccc2c1
fluorescence, % of fluorescein: -0.0047% [at 18.6 µM] (inactive)

COMPOUND SMILES: CC(C)C[C@H](NC(=O)OCC1c2ccccc2-c2ccccc21)C(=O)O
fluorescence, % of fluorescein: inactive

COMPOUND SMILES: CC(C)CC(=O)OCc1ccccc1
fluorescence, % of fluorescein: inactive

COMPOUND SMILES: CCCCCCCCc1ccc(S(=O)(=O)O)cc1
fluorescence, % of fluorescein: inactive

COMPOUND SMILES: O=C(O)c1cccc(Cl)c1Cl
fluorescence, % of fluorescein: inactive

COMPOUND SMILES: CCC(=O)O[C@]1(C(=O)SCF)[C@H](C)C[C@H]2[C@@H]3C[C@H](F)C4=CC(=O)C=C[C@]4(C)[C@@]3(F)[C@@H](O)C[C@@]21C
fluorescence, % of fluorescein: 0.0173% [at 18.6 µM] (inactive)

COMPOUND SMILES: C[C@]12C(=O)OC(=O)[C@H]1[C@H]1C=C[C@@H]2C1
fluorescence, % of fluorescein: inactive

COMPOUND SMILES: COC(=O)c1ccc(OC)cc1
fluorescence, % of fluorescein: inactive

COMPOUND SMILES: O=c1[nH]cnc2c1ncn2[C@@H]1O[C@H](CO)[C@@H](O)[C@H]1O
fluorescence, % of fluorescein: inactive

###

Experiment: qHTS assay to identify small molecule agonists of the estrogen related receptor signaling pathway with the pleiotropic PPARgamma coactivator (PGC) from Tox21 10K library (AID 1224842); note: nearly all actives have a fitted effect of over 15% in size; for activation: % is set by controls: 0 for no effect and ±100 for the full control effect
Settings: PGC/ERR reporter cell line, luciferase ONE-Glo, 18 h; series mostly up to 92.4 µM
Inconclusive results are not listed. Active and inactive are the calls of the source. Calls follow the shape of the dose curve; as a rule, active = well fitted activation curve with a large enough effect in the repeat runs; inconclusive = weak or mixed curves, or effect the other way; inactive = no such curve, though single readings can be large or run the other way.
Labels: True (active), False (inactive)

COMPOUND: Cc1ccc([N+](=O)[O-])cc1Cl
CLASS: False

COMPOUND: O=C1CCN(c2ccccc2)N1
CLASS: False

COMPOUND: CC(C)CCCCCCc1ccc(OCCOCCO)cc1
CLASS: False

COMPOUND: CCOc1ccccc1N
CLASS: False

COMPOUND: CC(C)(C)c1cccc(O)c1
CLASS: False

COMPOUND: CC(=O)N[C@@H](CC(C)C)C(=O)O
CLASS: False

COMPOUND: CCN1CC(CCN2CCOCC2)C(c2ccccc2)(c2ccccc2)C1=O (centres undefined)
CLASS: False

COMPOUND: NNS(=O)(=O)c1ccc(Oc2ccc(S(=O)(=O)NN)cc2)cc1
CLASS: False

COMPOUND: CCOC(=O)NCCC[Si](OCC)(OCC)OCC
CLASS: False

COMPOUND: CC(C)C[C@H](NC(=O)OCC1c2ccccc2-c2ccccc21)C(=O)O
CLASS: True

COMPOUND: FC(F)(F)c1ccccc1
CLASS: False

COMPOUND: CN(C)CCOc1ccccc1Cc1ccccc1
CLASS: False

COMPOUND: CCCCc1ccc2nc(NC(=O)OC)[nH]c2c1
CLASS: True

COMPOUND: CC(C)C(=O)OC/C=C/c1ccccc1
CLASS: False

COMPOUND: O=C(O)[C@@H](O)[C@H](O)[C@H](O)[C@@H](O)C(=O)O
CLASS: False

COMPOUND: CC(C)OC(C)C
CLASS: False

COMPOUND: CC1=C2[C@H](/C=C(\C)C(=O)O)CC[C@@H](C)[C@H]2CC1
CLASS: False

COMPOUND: COc1cc(C)ccc1C(C)C
CLASS: False

COMPOUND: CCOC(=O)C1CC(=O)C(=C(O)C2CC2)C(=O)C1 (centres undefined)
CLASS: False

COMPOUND: CC/C=C\CCOC(=O)CCCCC
CLASS: False

COMPOUND: CC(C)(C)c1ccc(OC(=O)c2ccccc2O)cc1
CLASS: True

COMPOUND: CC(Oc1c(Cl)cccc1Cl)C1=NCCN1 (centres undefined)
CLASS: False

COMPOUND: CCCCCCn1c(=O)c2c(ncn2C)n(C)c1=O
CLASS: False

COMPOUND: Cc1ccc(C)c(N)c1
CLASS: False

COMPOUND: Clc1cccc(-c2cc(Cl)cc(Cl)c2)c1
CLASS: False

COMPOUND: COc1ccccc1OCC(O)COC(N)=O (centres undefined)
CLASS: False

COMPOUND: CCCCCCCCCC#N
CLASS: False

COMPOUND: CCCN(CCC)C(=O)C(CCC(=O)O)NC(=O)c1ccccc1 (centres undefined)
CLASS: False

COMPOUND: OCc1c2ccccc2cc2ccccc12
CLASS: False

Numbers sourced from PubChem BioAssay (Tox21).
